Tested on: CYP3A
Test: Effect of brentuximab vedotin on midazolam PK
Conditions: human, plasma, iv, 1 mg
observed.property: AUC(0-inf) (ng·h/mL)
Supply the numeric figure in ng·h/mL, leaving out any unit text.

Quick check: AUC(0-inf) of Cc1ncc2n1-c1ccc(Cl)cc1C(c1ccccc1F)=NC2 ?
79

###

Test system: CYP3A
Experiment: Effect of brentuximab vedotin on midazolam PK
Details: human, plasma, intravenous
observed.property: half-life
The reply must contain the numeric value and, after it, the unit.

Give CYP3A half-life for Cc1ncc2n1-c1ccc(Cl)cc1C(c1ccccc1F)=NC2 [Midazolam, midazolam]
5.69 h
